Value source: PubChem BioAssay AID1159580

# Assay text: chemical genetic growth profiling, strain panel (AID 1159580);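 note: tested at 20 µM; growth read once vehicle control cultures reached saturation at 30 °C; 1 = growth at the plate median or of vehicle wells; lower values mean less growth of the strain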
# Condition label: S. cerevisiae deletion strains, growth OD, locus YMR129W
The campaign covered roughly 5,500 compounds. About 2,000 (36%) were called active. Another 18% or so got no clear call; they are omitted. Cut-off read from the data, not from the text of the source: active = normalized growth mostly below about 0.91 (no sharp cut-off); inconclusive = no clear call, values can overlap the other calls; inactive = mostly above about 0.92. The list shows a part of the results. Where a SMILES comes first, the peptide text is derived from it.
Response enum: active, inactive

# Compound, Class
data = [
    ("C[C@]12C=CC(=O)C=C1CCC1C2[C@@H](O)C[C@@]2(C)C1CC[C@]2(O)C(=O)COP(=O)(O)O (some centres not stated)", "inactive"),
    ("COc1cc(OC)c2c(=O)c(O)c(-c3ccc(OC)c(OC)c3)oc2c1", "inactive"),
    ("COC(=O)[C@H](Cc1ccccc1)NC(=O)[C@@H](N)CC(=O)O (H-Asp-Phe-OMe)", "inactive"),
    ("COc1ccc(-c2oc3cc(O[C@H]4O[C@H](CO)[C@@H](O)[C@H](O)[C@H]4O)c(OC)c(O)c3c(=O)c2OC)cc1O", "inactive"),
]

Next, consider the following compound.
[ask] I'd appreciate the recorded outcome for COc1cc2occc2c2oc(=O)ccc12 from this test.
[reply] inactive

----------
Quick reference for normalized growth among some molecules
# Assay text: chemical genetic growth profiling, strain panel (AID 1159580);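 note: tested at 20 µM; growth read once vehicle control cultures reached saturation at 30 °C; 1 = growth at the plate median or of vehicle wells; lower values mean less growth of the strain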
# Condition label: S. cerevisiae deletion strains, growth OD, locus YHR129C, strain ARP1, active compounds read low
The campaign covered roughly 5,500 compounds. About 2,000 (36%) were called active. Not shown: some 18% with an inconclusive outcome. This is one part of the list.
Answer field: number only, no words.

The cases that follow already have their normalized growth on record.
# Molecule, normalized growth
records = [
    ("CC(C)c1c(O)ccc2c1CCC1[C@@](C)(CO)CCC[C@]21C (some centres not stated)", 0.949),
    ("COc1ccc2c3c1OC1C(O)CC=C4C(C2)N(C)CCC431 (configuration not stated)", 1.01),
    ("CCCCCCC(C)OC(=O)COc1ccc(Cl)cc1Cl (configuration not stated)", 0.977),
    ("CCOCN(C(=O)CCl)c1c(C)cccc1CC", 0.963),
    ("CC(C)c1c(O)c(-c2cc3c(c(C(C)C)c2O)CCC2C(C)(C)CCC[C@]32C)cc2c1CCC1C(C)(C)CCC[C@]21C (some centres not stated)", 1),
]

Would you kindly look at the next entry?
[ask] State its normalized growth: O=c1c(O)c(-c2ccc(O)c(O)c2)oc2cc(O)cc(O)c12
[reply] 0.926

----------
# Assay text: chemical genetic growth profiling, strain panel (AID 1159580);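 note: tested at 20 µM; growth read once vehicle control cultures reached saturation at 30 °C; 1 = growth at the plate median or of vehicle wells; lower values mean less growth of the strain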
# Condition label: S. cerevisiae deletion strains, growth OD, locus YPR167C, strain met16, active compounds read low
Among all 5,500 compounds or so, about 2,000 (36%) were called active. Not shown: some 18% with an inconclusive outcome. The list shows a part of the results.
With a cut-off of 1, any normalized growth strictly below it is called t; any normalized growth meeting it or above is called f.

# Compound, Class
measured = [
    ("C[C@@H]1CC[C@@]2(NC1)O[C@H]1C[C@H]3C4CC=C5C[C@@H](O)CC[C@]5(C)C4CC[C@]3(C)C1[C@@H]2C (stereo partly specified)", "t"),
    ("CC1CC[C@]2(NC1)O[C@H]1CC3C4CC[C@H]5C[C@@H](O)CC[C@]5(C)C4CC[C@]3(C)[C@H]1[C@@H]2C (stereo partly specified)", "t"),
    ("CC(C1OC(C)(C)C(O)C1O)[C@@H]1CC[C@]2(C)C3=CCC4C(C)(C)C(=O)CC[C@]4(C)C3CC[C@@]12C (stereo partly specified)", "f"),
    ("CN1C[C@H](C(=O)N[C@]2(C)O[C@@]3(O)[C@@H]4CCCN4C(=O)[C@H](Cc4ccccc4)N3C2=O)C[C@@H]2c3cccc4[nH]cc(c34)C[C@H]21", "t"),
]

Let's switch to this compound now.
[ask] In plain terms, does COc1cc(OC)c2c(=O)c(O)c(-c3ccc(OC)c(OC)c3)oc2c1 come in under 1 for normalized growth?
[reply] t
